- Tested on: HT-29
- assayText: Antitumor activity against human HT-29 cells
- Assay type: functional, cell-based
A collection of compounds and their measured IC50
Express it in µM; write the number only.

- compoundStructureString: "O=C1O/C(=C\\c2cc(Br)c(O)c(Br)c2)C(c2cc(Br)c(O)c(Br)c2)=C1Cl"
  units: "µM"
  recordedMeasurement: 8
- compoundStructureString: "O=C1O/C(=C\\c2ccc(O)c(Br)c2)C(c2ccc(O)c(Br)c2)=C1Cl"
  units: "µM"
  recordedMeasurement: 2.6

As a next step, examine the compound that follows.
Prompt: Requested field: IC50. Item: O=C1O/C(=C\c2ccc(O)c(Br)c2)C(c2ccc(O)cc2)=C1Cl
Response: 3.1

* * *

- Test system: HeLa
- assayText: Cytotoxicity against human HeLa cells assessed as inhibition of cell growth incubated for 72 hrs by MTT assay
- Type: functional, cell-based
compounds and their reported pIC50
// pIC50: -log10(molar conc.)

- compoundStructureString: "COc1ccc(C2=CC(=O)O/C2=C\\c2ccc(O)c(OC)c2)cc1"
  measurementType: "pIC50"
  recordedMeasurement: 6.22

Prompt: # input compound: COc1ccc(C2=CC(=O)O/C2=C\c2ccc(O)cc2)cc1 ; wanted: its pIC50
Response: 6.70

Prompt: Name the reported pIC50 value associated with the compound COc1ccc(C2=CC(=O)O/C2=C\c2ccc(O)c(O)c2)cc1
Response: 5.89

Prompt: Any idea what its pIC50 is? The compound is COc1ccc(/C=C2\OC(=O)C=C2c2ccc(OC)cc2)cc1
Response: 5.66

Prompt: Need pIC50, item COc1ccc(C2=CC(=O)O/C2=C\c2ccccc2)cc1
Response: 5.74
